# Test system: DLG1 PDZ1
# MEASUREMENT_PROTOCOL: Phosphomimetic ProP-PD selection with NGS
# Format: binding, human
# REPORTED_CONDITIONS: mean of selections 1-3; bait DLG1 PDZ1; wild type peptide
# Experimental: Phage selections were carried out for four rounds following a protocol by Huang and Sidhu (Huang & Sidhu, 2011) with minor modifications. Non‐specific binding phage was removed by pre‐selections against immobilized GST throughout the selection. […] The naïve library and the enriched phage pools of the third day of selection were amplified and barcoded by PCR and analyzed by NGS as described elsewhere (McLaughlin & Sidhu, 2013; Ivarsson et al, 2014). […]
EXPERIMENTAL_ENDPOINT: Mean fraction #NGS counts wt peptide / total counts selection
No unit in the answer, only the number.

>>> numeric_value("VWLRKETRV")
0.4163

Readout Mean fraction #NGS counts wt peptide / total counts selection for `RRESYSTTV` , test system DLG1 PDZ1, was 0.005493

Readout Mean fraction #NGS counts wt peptide / total counts selection for `GSLALLTKL` , test system DLG1 PDZ1, was 0

Readout Mean fraction #NGS counts wt peptide / total counts selection for `KYDKELTPV` , test system DLG1 PDZ1, was 1.185e-6
